self-splicing fitness (ln) values by entry
assay: self-splicing fitness, log relative to wild type (ln ratio); higher = more splicing; Tetrahymena group I intron in knt gene, E. coli kanamycin selection, DiMSum; sequences stand for … in CUCUCU…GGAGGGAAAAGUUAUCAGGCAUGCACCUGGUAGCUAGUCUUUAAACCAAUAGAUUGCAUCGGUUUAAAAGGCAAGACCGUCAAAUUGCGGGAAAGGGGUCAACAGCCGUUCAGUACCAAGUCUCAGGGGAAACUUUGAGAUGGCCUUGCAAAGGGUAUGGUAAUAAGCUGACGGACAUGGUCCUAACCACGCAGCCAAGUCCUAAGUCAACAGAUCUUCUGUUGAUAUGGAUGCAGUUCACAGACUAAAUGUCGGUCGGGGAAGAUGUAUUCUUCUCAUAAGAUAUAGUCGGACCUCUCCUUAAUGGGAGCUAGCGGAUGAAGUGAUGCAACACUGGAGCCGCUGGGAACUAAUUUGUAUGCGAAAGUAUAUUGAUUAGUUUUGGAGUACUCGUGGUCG; details: 37 °C;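 note: selection with 25 µg/mL kanamycin versus none on LB agar overnight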
Just the number, please.

{"columns": ["sequence.text", "self-splicing fitness (ln)"],
 "data": [
  ["AUUCAGCAAUAUUACGGCAG", -0.688]
]}

Provide measured self-splicing fitness (ln) value, entry: GUCAAGCAAUAUUACGUAUU
-1.84

Answer with the recorded self-splicing fitness (ln) for the sequence listed here: AGAAAGCAAUAUUACGUGGC
-1.14

Return reported self-splicing fitness (ln). Input sequence: GCGAAGCAAUAUUACGUCUC
-1.41

Tell us which self-splicing fitness (ln) value is on record for AGUUAGCAAUAUUACGUAUA
-1.57

Report measured self-splicing fitness (ln); entry is AACAAGCAAUAUUACGUCUA
0.247

Identify measured self-splicing fitness (ln) associated with GUCUAGCAAUAUUACGUGGA
-2.69

Give the reported self-splicing fitness (ln) for this sequence. UAUGAGCAAUAUUACGAUAU
-2.02

Complete the entry with self-splicing fitness (ln) for ACAUAGCAAUAUUACGCUCU
-0.2

Return the recorded self-splicing fitness (ln) value; entry: UAGUAGCAAUAUUACGAUAA
-1.18
